Target: T1, 4-1BB dog (dog 4-1BB ECD-TEV-IgG1 Fc-10x His) (dog)
T1 construct: Uniprot E2R1R9 residues 24-186 fused to TEV site, IgG1 Fc and His tag
T1 sequence (chain, as listed by the source limits assumed): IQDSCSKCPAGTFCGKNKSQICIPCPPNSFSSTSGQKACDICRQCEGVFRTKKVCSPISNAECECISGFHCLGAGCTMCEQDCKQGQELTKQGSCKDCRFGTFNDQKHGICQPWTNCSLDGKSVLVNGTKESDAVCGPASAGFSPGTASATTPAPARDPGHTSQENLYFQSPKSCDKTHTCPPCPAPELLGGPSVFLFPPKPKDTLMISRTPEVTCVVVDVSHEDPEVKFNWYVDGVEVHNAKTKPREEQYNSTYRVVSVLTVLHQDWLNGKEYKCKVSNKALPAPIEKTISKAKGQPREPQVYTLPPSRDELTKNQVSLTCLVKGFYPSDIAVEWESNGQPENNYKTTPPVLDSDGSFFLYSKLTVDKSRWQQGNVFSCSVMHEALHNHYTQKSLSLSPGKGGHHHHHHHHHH
Assay: ELISA, coated 4-1BB-Fc
Quantity Measured: binding result

Binder	Quantity Measured	Reported Value
v20029 (antibody, human IgG1, kappa, L234A L235A, V domains shown, Mouse-human chimera; also called 3E7) VH: QVQLQESGGGLVKPGGSRKLSCAASGFTFSEFGMHWVRQAPDKGLEWVAYISSGSSTIYYADTVKGRFTISRDNAKNTLFLQMTSLRSEDTAMYYCARDWVDYWGQGTALTVSS VL: NIVMTQSPKSMSMSVGERVTLSCKASENVGSYVSWYQQKPEKSPKLLIYGASNRYTGVPDRFTGSGSATDFTLTISSVQAEDLADYHCGQSYSYPLTFGAGTKLELKR	binding result	binds
v20036 (antibody, human IgG1, kappa, L234A L235A, V domains shown, Mouse-human chimera; also called 5G8; 5G8 mouse-human parental chimera) VH: QVQLQESGPGLVQPTQSLSITCTVSGFSLISYGVHWVRQSPGKGLEWLGVIWSGGSTDYNAAFISRLSISKDNSKSQVFFKMNSLQADDTAIYYCARNPLTATVMDYWGQGTSVTVSS VL: DIVMTQSQKFMSTSVGDRVSVTCKASQNVGTNVAWYQQKPGQSPKALIYSASYRDSGVPDRFTGSGSGTDFTLTISNVQSEDLAEYLCQQYNSYPLTFGAGTKLELKR	binding result	no binding
v20037 (antibody, human IgG1, kappa, L234A L235A, V domains shown, Mouse-human chimera; also called 6B3) VH: QVQLKESGPGLVAPSQSLSITCTVSGFSLTSYAISWVRQPPGKGLEWLGVIWPGGGTNYNSALKSRLSISKDNSKSQVFLKMNSLQTDDTARYYCARGTGTWYFDVWGAGTTVTVSS VL: DIQMTQTTSSLSASLGDRVTISCSASQGISNYLNWYQQKPDGTVKLLIYYTSSLHSGVPSRFSGSGSGTDYSLTISNLEPEDIATYYCQQYSDLPWTFGGGTKLEIKR	binding result	no binding
v20023 (antibody, human IgG1, kappa, L234A L235A, V domains shown, Mouse-human chimera; also called 1G1; 1G1 mouse-human parental chimera) VH: EVQLVESGGGLVKPGGSRKLSCAASGFTFSEFGMHWVRQAPDKGLKWVAYISSGGSTIYYADTVKGRFTISRDNAKNTLFLQMTSLRSEDTAMYYCARDWVDYWGQGTTLTVSS VL: NIVMTQSPKSMSMSVGERVTLSCKASENVGSYVSWYQQKPEKSPKLLIYGASNRYTGVPDRFTGSGSATDFTLTISSVQAEDLADYHCGQSYSYPLTFGAGTKLELKR	binding result	binds
v20022 (antibody, human IgG1, kappa, L234A L235A, V domains shown, Mouse-human chimera; also called 1C8; 1C8 mouse-human parental chimera) VH: QVQLKESGPGLVAPSQSLSITCTVSGFSLTTYAISWVRQPPGKGLEWLGIIWPGGGTNYNSALKSRLSISKDNSRSQVFLKMNSLQTDDTARYYCARGAGTWYFDVWGAGTTVTVSS VL: DIQMTQSTSSLSASVGDRVTISCSASQGISNYLNWYQQKPDGTVKLLIYYTSSLHSGVPSRFSGSGSGTDYSLTISNLEPEDIATYYCQQYSKFPWTFGGGTKLEIKR	binding result	no binding
v20025 (antibody, human IgG1, kappa, L234A L235A, V domains shown, Mouse-human chimera; also called 2E8) VH: QVQLKQSGPGLVQPSQSLSITCTVSGFSLTSYGVHWVRQSPGKGLEWLGVIWSGGSTDYNAAFISRLSISKDNSKSQVFFKMNSLQADDTAIYYCARNPLTATVMDYWGQGTSVTVSS VL: DIVMTQSQKFMSTSVGDRVSVTCKASQNVGTNVAWYQQKPGQSRTVLIYSASYRHSGVPDRFTGSGSGTDFTLTISNVQSEDLAEYFCQQYNSYPLTFGTGTKLELKR	binding result	no binding

Recorded binding result of v20032 (antibody, human IgG1, kappa, L234A L235A, V domains shown, Mouse-human chimera; also called 4E6) VH: QVQLKESGPGLVAPSQSLSITCTVSGFSLTSYAINWVRQPPGKGLEWLGVLWPGGGTNYNSALKSRLSISKDNSKSQVFLKMNSLQTDDTARYYCARGSGTWYFDVWGAGTTVTVSS VL: DIQMTQTTSSLSASLGDRVTFSCSASQGISNYLNWYQQKPDGTVKLLIYYTSSLHLGVPSRFSGSGSGTDYSLTISNLEPEDIATYYCQQYSKLPWTFGGGTKLEIKR , please.
no binding

Data origin, for the record: patent US20230052369A1
